# key: entry, value: remaining at 4 h, 5 mg/mL
# experiment notes: Simulated digestive stability of peptides (pepsase then trypsase)
# Assay type: in vitro ADME, porcine
# details: pig, pH 7, simulated digestion, after pepsase then trypsase, relative to basal 100; replicate 1; sheet S2H; read-out: Peptide remaining, Trypsase
Where a SMILES comes first, the peptide text is derived from it.
Dear colleague, please return just the value in %, with no unit written.

Check out these entries, answers already filled in.
- compound: "CC(C)C[C@H](NC(=O)[C@H](CC(N)=O)NC(=O)[C@@H](N)Cc1ccc(O)cc1)C(=O)N1CCC[C@H]1C(=O)O [YNLP] (H-YNLP-OH)"
  quantity unit: "%"
  reported: 98.7
- compound: "NC(=O)CC[C@H](NC(=O)[C@@H]1CCCN1C(=O)[C@@H](N)Cc1ccccc1)C(=O)N[C@@H](CO)C(=O)O [FPQS] (H-FPQS-OH)"
  quantity unit: "%"
  reported: 85.1
- compound: "C[C@H](NC(=O)[C@H](Cc1ccc(O)cc1)NC(=O)[C@H](CO)NC(=O)[C@@H](N)Cc1ccc(O)cc1)C(=O)O [YSYA] (H-YSYA-OH)"
  quantity unit: "%"
  reported: 3.01
- compound: "CC(C)[C@H](N)C(=O)N[C@@H](C)C(=O)N[C@@H](CC(=O)O)C(=O)N[C@@H](Cc1c[nH]c2ccccc12)C(=O)O [VADW] (H-VADW-OH)"
  quantity unit: "%"
  reported: 9.2
- compound: "CSCC[C@H](NC(=O)[C@H](CC(C)C)NC(=O)[C@H](CCC(N)=O)NC(=O)[C@@H](N)Cc1ccc(O)cc1)C(=O)O [YQLM] (H-YQLM-OH)"
  quantity unit: "%"
  reported: 14.3

Would you kindly look at the next entry?
Exam item: Entry under review: CC(C)C[C@H](NC(=O)[C@@H](N)CC(C)C)C(=O)N[C@@H](Cc1ccc(O)cc1)C(=O)O [LLY] (H-Leu-Leu-Tyr-OH) . Reported remaining at 4 h, 5 mg/mL?
Marked response: 0.95

###

# experiment notes: in vitro
# Format: in vitro ADME, Akkermansia muciniphila
# details: cells or culture medium, VAMP remaining, incubated with A. muciniphila, time 6
Where a SMILES comes first, the peptide text is derived from it.
measured quantity: remaining at 6 h, 100 μM
Reply with a number, then the unit it belongs to.

Exam item: Entry under review: CSCC[C@H](NC(=O)[C@H](C)NC(=O)[C@@H](N)C(C)C)C(=O)N1CCC[C@H]1C(=O)O [VAMP] (H-VAMP-OH) . Reported remaining at 6 h, 100 μM?
Marked response: 95.4%
